- assay.details: protease stability score; higher = more stable; yeast display proteolysis, trypsin and chymotrypsin;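 also: relative to predicted unfolded state with 0 unfolded-like and 1 meaning tenfold more protease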
Each record gets a class by protease stability score: I: < 0.4; II: ≥ 0.4 and < 1; III: ≥ 1

// return the class label for SEESEHEEIIAEVTLELLATGDWRTLYELFDPNVRVHVGDKRSIGREQFVKIWKEFLEKFKNVVYKFKDIKWINGVVHIHMTLEYNGRRIEVNIHNFVYDGKIEHIHIEFKHL
III

// return the class label for TDEEKSVEELLEKIEHANDTGDFELHKRLADPHVRVLVNGVELHGRHVLMEWLRELFERFKNVTFRLNLREVEFQGEWVFLRIELTVHVNGRTHHHDSIYIIHKVDGRWHITEVRFH
III

// return the class label for DHEEKEARRLLELIWKLIQTGDEHFLRELMDPHARISIDGVRLHGMEDIREFLHRYFKHHGYRWHRQRETEKHVVNGVQILFGEHDGEVDGKRDNTRSRLIFLVIDGKLQELEVNNV
II

// return the class label for GDLEHMLESMARLWTHEVLTGDEDTLRRLADPNVRFESHVNGQRVEFHGMEEVAEWMRKHLEEIRSRIELRTIEPQGNKAHVDGTTHLHYNGRTVIKKTHVHLSIVDGKIQRVELELR
I

// return the class label for DEERKMYTYAHKLLKTSHDTGNEDDLTNLVDPNVRIDINGRDIHGWDFWHEMMTKLGVNVFETKHVELQGNKLHIDGTLHVDGRTHRVTINNIKIDGRWIIKHVHIE
I

// return the class label for DEDRKTVELAERLLKEMFDTGDEHTMRSLLDPNVRSNIGDWEFIGMDELSRWFEEVLKKLGVDHRSLKIKRSHTIGDKVILRSTLEFQQGDKTMKVDMRLVATKINGRWTVEEVEMK
II

// return the class label for DERERDARIYFHLLLHVIMTGNEEDLERFMDPHARIQIGDKMVHGRENVYHELLRIAREMRLHHSHIHEIRVIDGRVILKGHLDLEVGDKRELVDVEWIVIKVNGKWIFHSVHFR
III

// return the class label for DEEEKLLEQLARLILHNLLTGDWKSHMNNADPDVKVTVNGVLVHGREDMSHLYRELLERIPNIQIRVDRVDIQGDKVHARLWVEFDGKERQSELHVRIVNGRIKEETYHEK
II

// return the class label for DEEERISEELFNFITKHWLTGDFDAVRNRLDPNVRYLINGREWHGREYARHLASHLRVERVKIENFEIQGNKITFDTRMDGEFDGQHIDVKTIIIFVKIDGKWLLHEFVIH
III

// return the class label for DEDTEVIERSITHWMKVLETGDWEDIERNADPNARMDINGREFHGREEVSRHLREDLDRLGIERVRVEIKHYRVQGEFIDIHGILRQGEYESKIHVRASKINGKWVLESLEVV
I

* * *

- assay.details: protease stability score; higher = more stable; yeast display proteolysis, trypsin and chymotrypsin;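 also: relative to predicted unfolded state with 0 unfolded-like and 1 meaning tenfold more protease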
Param threshold (1) applies to protease stability score; output criterion met when value >= threshold, criterion not met when value < threshold.

Hi team, for SEEEKEARRILTHFREVLHTGDEHALLELMDPNVRFILHDENHTVENHGMENMVTSLRKFGFDVIKRVHDKEHHLQGDKIKFHVETLGEINGREFEVEVQIRLYVVDGVLKWSEIIIH , is the recorded protease stability score at or above 1?
criterion met

Hi team, for DEIEHESEEILRMWLHAIKTGDEEFLKQYIDPHAKLDINGVEFHGREHIVRFIVELRMHDHRVQDSRKVGNKVILHTRVDSIIGDKRIDTHVTIIVRKIDGKWRLEEYRVS , is the recorded protease stability score at or above 1?
criterion met

Hi team, for SEDEEAVHKMLEMWIKHINTGDERHLHKLADPNYRVEQGDKELHGRHAYEYVFHQFDHWKEIRIEEVKTYDGRVKIKGREVYHINGQEIESEVRIITTKVDGQWHLKSILFK , is the recorded protease stability score at or above 1?
criterion not met

Hi team, for DEDRRHADEVLELFSEAFLTGNEEEMRKLADPHVRIDFNGRLKIGMETYKEEMDRFDHTEMRLESKHVHVFDGRVRIDGRLRIILRIGDKEIRHDHQVDILITKVDGRWIIKSMHIE , is the recorded protease stability score at or above 1?
criterion met

Hi team, for EEDRKHAEHVFELLMEVLLTGDWKMSRHLFDPNARIEIDGVESHGWEFIYRLLRFIWEHLGIKVRDMKIRRFDVINGVAHFDGELRLHVDGVEIVLEIRLNIFVINGRLKEVHLKRT , is the recorded protease stability score at or above 1?
criterion met

* * *

- assay.details: protease stability score; higher = more stable; yeast display proteolysis, trypsin and chymotrypsin;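 also: relative to predicted unfolded state with 0 unfolded-like and 1 meaning tenfold more protease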
measure: protease stability score
Note: the reply should be a number with no unit written.

Could you please provide reported protease stability score for DEYERIWRDLVKLILHAHKTGDEDHLKRLMDPNAKIHVGEFEMIGRTDEELWKRLLGIERFHIHRIDIRTISIFDGRLHIEVDSDGQINGKRVEHHIEITLVIIDGKLHSVSHTLK ? Thanks!
1.1

Could you please provide reported protease stability score for TEHEKFKEEWVRMFLRDWLTGNENTLRHLADPDTLLEINGRIFHGMHTISRWTEEHLRRIDHLRLEMHTVDVIGDFAHVHGTLKLHVGDKEHHVTFHINLFTINGRIKSIIVKEE ? Thanks!
1.43

Could you please provide reported protease stability score for DETEEEVREAIEKFIQDLHTGNWHAYNEMLDPNVRVIVGDKHLHGRERVLEWEEEFMRKVKGATYRIDHMDVIDGRINLHFRITIGDKSREFNVHSLKINGQWHTKEVRVNIL ? Thanks!
1.06

Could you please provide reported protease stability score for TESEKLSRIVIKLLIESTRTGDERILHELVDPNVKLNVNGRELHGWEEMVKIHKQWRFHDLEVDSVRLIGDKMEIDTTIHGTIDGQKDNIDVRIILEKVNGRWVLREVHIK ? Thanks!
1.58

Could you please provide reported protease stability score for DETEEIAKKVVEYWIREFMTGNEESLLELIDPNAKSDILQGDKELHIVGRESARLFIKRFKGQRMEITHLEVHVQGDKVHVRLHVDIIYNGRKFHVISHVDWEKIDGRWIIHQEKFVFE ? Thanks!
1.71

Could you please provide reported protease stability score for SEEDEEIHRNLRILVEAIHTGDETTMSKLIDPHARLKVGDKDHHGREKMTEFLIELGIDHIVFRRTRIINGRAEHHGHIKVGDKKMETRIISDKIDGKWIITEVIIH ? Thanks!
1.51

Could you please provide reported protease stability score for DEETRDLHHALRIVLHILRTGDFSHLFEYADPHVKIDINGKEVHGMEQMHHEIERLYFELGVDNVTVQHKRIIVYDGRVLVHMISHIGDKWRDIIIIFLKVNGRWRLHSIEVK ? Thanks!
1.72

Could you please provide reported protease stability score for SEEDEVTEKLVRLMIHAHHTGDEDLLKTLADPNVRLTIDYNGVKLTSHGREEFVRLLREWKRQIRIEDRKTTESHVYGNFAINNHVELGEFDGRRDRFEVRLHFVVFNGRVKEEKIKFD ? Thanks!
1.45

Could you please provide reported protease stability score for DEEKERMFEHWEDVLRDWYTGNEDNLRHLFDPHARTDVNGVELHGMDLISEVLRRHLEEIRIKSMHLRELRSVDGRIHEHGELRGRVNGVDVRREVRVHLTVVNGRMKEMRFENI ? Thanks!
0.394

Could you please provide reported protease stability score for DDLEHEAHEFVRRFMEDFDTGNEKSFEDLADPNVRLDFDGKRQHGRETVSEWLYRWLYDLGIKHTTLRHVETINGRVHSTAELKVGDKHYDLHVEFKKVDGKWVFQRVYFR ? Thanks!
1.11

Could you please provide reported protease stability score for DEEEKAHEHMLRVLLHLERTGNEKALTEMADPNVRIDWNGKEDHGMEHLLRHLREIRIKNFELTDERHQGDKIELRGRLHGFIGDKHIILEVELVWRKVNGRWQLTSMHIK ? Thanks!
1.45

Could you please provide reported protease stability score for SEEEEHTRHMYELFWRILHTGDEKSFHELADPNVLLRVGDKNFHGREEAERFLHEYWERYKNMRIEMKTFDFQGNKVHSEGVININGVKIRSELELVVFDGRLHSVIVRHR ? Thanks!
2.43

Could you please provide reported protease stability score for SEEHRDVAKVIHDWFHDTITGDFKTLERLMDPNARLRINGQEFHGREEVRKFLERLLRHWREHSVEIEDINVQGDKASVHSHIDGEIDGRRIRMRSIFIILKFDGQWLMHSVIVE ? Thanks!
2.68

Could you please provide reported protease stability score for HENEEAAEHIFELFLDSLRTGDPDVVERLLDPHVKLDINGVEFHGREEAVHILMEEWKRLGIDHFEIKRIELRVYNGVVHIEIDSRTQVNGQKHHTKYRIIVIKINGRWHVNLLYIYIE ? Thanks!
2.12

Could you please provide reported protease stability score for DHEEEHALRIMQLLLWLDFTGDEETIHHLMDPHVRSVWIVGDKTITRHGRENVLKLFRDLGFKHVKDFRIRDVSAFDGRVDLKGRIDGQYGDKRETWDMDVELNVVDGRLKFFIIRFK ? Thanks!
1.69

Could you please provide reported protease stability score for DEDRESMLEHFRLLVEQTKTGNEESTEENIDPHVRLIFNGQEYHGRHEVARYLVEIWRRVDHVRIHLTHMEVYDGVMEIHGQYHLDFDGRHVTHEFRIIFTKVDGRWRIHELRVQ ? Thanks!
1.38

Could you please provide reported protease stability score for SEDREQVHRFFEQFSRDTLTGNEERNFEMADPHTRFDIDGRIIIGRDIILHHWKEEMRKHGAEMKIHIHHVRVQGDKATVDLRVEIHINGRTYEYKVVMIVEKIDGRWVLTQIKYE ? Thanks!
0.365

Could you please provide reported protease stability score for DEDEDESRRFHEEFIKRILTGDEDEFVKLLDPDVRIEIGDKKSIGRERALERFHRMLTEIRVHHVELRERTIQGDKVFLNMEVDLEFNGRRDRTKFHMIIWKVDGQWTLSEMRVK ? Thanks!
2.48

Could you please provide reported protease stability score for KEKEEIARMMLKELIKTIRTGDPEEWHKLFDPHVLIVIDGREIHGMEEHTRLLRELGIDRIELHTQHERHVSVQGDKVHLDIDVDGMFDGQKRRFHMHIDALKVNGQWVIQYIEIR ? Thanks!
1.96

Could you please provide reported protease stability score for NEDERLIKEFWRLLQEALKTGNWEMIAELIDPHVRIDIGDKQIHGREEFIKLVDHIRFDDVKTELKTVHVFDGRVEVRGHLTVHKTFNGQKIDERTDVNLDIEKINGVWYMTYVRIE ? Thanks!
2.06

Could you please provide reported protease stability score for DEHHEEIHRLVEIFLHLELTGDEDTWRELADPTAQIHIDGRDIHGMEDVLRVWEQFKKEMGIDHIRVKDYKVQGNFMHINTELEFNGRRVDSRIEIYIYDGRIKSVIIRYR ? Thanks!
2.25

Could you please provide reported protease stability score for DEKHEIMREALKEFITEQRTGNEDRIKQLMDPNVRIFVGDKEFHGREEVMRILKILRHELGVDNIFIILRSMHIVDGRVHLDVELHINGRIFKSELVILKIDGQWLIRSIHIE ? Thanks!
1.66
